Catalogue of fold change of affinity values
Target: T1, Human CD3eg linker (human)
T1 construct: Single chain: epsilon and gamma subunits of human CD3 joined by a 29-mer linker, Flag-tag at the C-terminus; also called recombinant human CD3
T1 chain: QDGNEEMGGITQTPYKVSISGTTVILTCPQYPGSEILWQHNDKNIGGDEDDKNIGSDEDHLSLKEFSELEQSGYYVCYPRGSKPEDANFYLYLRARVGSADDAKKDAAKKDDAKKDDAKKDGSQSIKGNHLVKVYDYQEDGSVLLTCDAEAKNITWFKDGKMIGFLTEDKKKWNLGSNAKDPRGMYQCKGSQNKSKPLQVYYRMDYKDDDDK
Experiment: Biacore SPR, vs template H183/L072

# binder, fold change of affinity
rows = [
    ("H183/L072 VH N31M (antibody, name in Kabat numbering, V domains shown) VH: QVQLVESGGGLVQPGRSLRLSCAASGFTFSMAWMHWVRQAPGKGLEWVAQIKDKGNAYAAYYAPSVKGRFTISRDDSKNSIYLQMNSLKTEDTAVYYCHYVHYASASTVLPAFGVDAWGQGTTVTVSS VL: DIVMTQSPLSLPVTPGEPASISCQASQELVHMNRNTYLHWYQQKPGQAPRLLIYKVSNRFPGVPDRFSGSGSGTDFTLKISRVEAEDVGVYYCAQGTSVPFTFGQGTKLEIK", "0.2 fold"),
    ("H183/L072 VH I51L (antibody, name in Kabat numbering, V domains shown) VH: QVQLVESGGGLVQPGRSLRLSCAASGFTFSNAWMHWVRQAPGKGLEWVAQLKDKGNAYAAYYAPSVKGRFTISRDDSKNSIYLQMNSLKTEDTAVYYCHYVHYASASTVLPAFGVDAWGQGTTVTVSS VL: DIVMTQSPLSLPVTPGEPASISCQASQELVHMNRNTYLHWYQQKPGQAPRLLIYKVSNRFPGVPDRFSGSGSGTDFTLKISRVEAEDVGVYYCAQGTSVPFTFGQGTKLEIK", "0 fold"),
    ("H183/L072 VH T100bA (antibody, name in Kabat numbering, V domains shown) VH: QVQLVESGGGLVQPGRSLRLSCAASGFTFSNAWMHWVRQAPGKGLEWVAQIKDKGNAYAAYYAPSVKGRFTISRDDSKNSIYLQMNSLKTEDTAVYYCHYVHYASASAVLPAFGVDAWGQGTTVTVSS VL: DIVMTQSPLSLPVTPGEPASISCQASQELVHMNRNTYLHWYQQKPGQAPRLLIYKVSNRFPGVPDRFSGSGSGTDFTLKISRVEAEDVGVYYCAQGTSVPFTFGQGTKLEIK", "1.1 fold"),
    ("H183/L072 VH Y55K (antibody, name in Kabat numbering, V domains shown) VH: QVQLVESGGGLVQPGRSLRLSCAASGFTFSNAWMHWVRQAPGKGLEWVAQIKDKGNAKAAYYAPSVKGRFTISRDDSKNSIYLQMNSLKTEDTAVYYCHYVHYASASTVLPAFGVDAWGQGTTVTVSS VL: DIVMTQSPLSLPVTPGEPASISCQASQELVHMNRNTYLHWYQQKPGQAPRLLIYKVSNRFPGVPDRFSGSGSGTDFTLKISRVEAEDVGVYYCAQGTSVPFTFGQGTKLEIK", "0.4 fold"),
    ("H183/L072 VH F27N (antibody, name in Kabat numbering, V domains shown) VH: QVQLVESGGGLVQPGRSLRLSCAASGNTFSNAWMHWVRQAPGKGLEWVAQIKDKGNAYAAYYAPSVKGRFTISRDDSKNSIYLQMNSLKTEDTAVYYCHYVHYASASTVLPAFGVDAWGQGTTVTVSS VL: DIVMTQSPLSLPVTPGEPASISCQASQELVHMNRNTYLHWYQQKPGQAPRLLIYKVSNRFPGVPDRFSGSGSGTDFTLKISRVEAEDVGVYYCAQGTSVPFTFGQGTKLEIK", "0.4 fold"),
    ("H183/L072 VH A54H (antibody, name in Kabat numbering, V domains shown) VH: QVQLVESGGGLVQPGRSLRLSCAASGFTFSNAWMHWVRQAPGKGLEWVAQIKDKGNHYAAYYAPSVKGRFTISRDDSKNSIYLQMNSLKTEDTAVYYCHYVHYASASTVLPAFGVDAWGQGTTVTVSS VL: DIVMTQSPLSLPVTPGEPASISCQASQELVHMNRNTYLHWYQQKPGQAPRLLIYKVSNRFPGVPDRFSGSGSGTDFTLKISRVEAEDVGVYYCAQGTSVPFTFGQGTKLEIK", "1.1 fold"),
    ("H183/L072 VH A100fI (antibody, name in Kabat numbering, V domains shown) VH: QVQLVESGGGLVQPGRSLRLSCAASGFTFSNAWMHWVRQAPGKGLEWVAQIKDKGNAYAAYYAPSVKGRFTISRDDSKNSIYLQMNSLKTEDTAVYYCHYVHYASASTVLPIFGVDAWGQGTTVTVSS VL: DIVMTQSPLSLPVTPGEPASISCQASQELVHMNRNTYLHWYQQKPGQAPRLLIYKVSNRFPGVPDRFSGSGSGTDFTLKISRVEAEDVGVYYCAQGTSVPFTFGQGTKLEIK", "1 fold"),
    ("H183/L072 VH G100hP (antibody, name in Kabat numbering, V domains shown) VH: QVQLVESGGGLVQPGRSLRLSCAASGFTFSNAWMHWVRQAPGKGLEWVAQIKDKGNAYAAYYAPSVKGRFTISRDDSKNSIYLQMNSLKTEDTAVYYCHYVHYASASTVLPAFPVDAWGQGTTVTVSS VL: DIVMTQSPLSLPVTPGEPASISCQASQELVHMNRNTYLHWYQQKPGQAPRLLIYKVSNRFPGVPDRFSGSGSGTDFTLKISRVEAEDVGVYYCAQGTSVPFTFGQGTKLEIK", "0.6 fold"),
    ("H183/L072 VH M34Y (antibody, name in Kabat numbering, V domains shown) VH: QVQLVESGGGLVQPGRSLRLSCAASGFTFSNAWYHWVRQAPGKGLEWVAQIKDKGNAYAAYYAPSVKGRFTISRDDSKNSIYLQMNSLKTEDTAVYYCHYVHYASASTVLPAFGVDAWGQGTTVTVSS VL: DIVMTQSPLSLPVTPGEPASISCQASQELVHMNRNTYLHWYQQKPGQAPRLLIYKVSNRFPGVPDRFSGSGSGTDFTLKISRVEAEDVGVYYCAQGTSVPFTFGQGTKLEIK", "0 fold"),
    ("H183/L072 VH K52D (antibody, name in Kabat numbering, V domains shown) VH: QVQLVESGGGLVQPGRSLRLSCAASGFTFSNAWMHWVRQAPGKGLEWVAQIDDKGNAYAAYYAPSVKGRFTISRDDSKNSIYLQMNSLKTEDTAVYYCHYVHYASASTVLPAFGVDAWGQGTTVTVSS VL: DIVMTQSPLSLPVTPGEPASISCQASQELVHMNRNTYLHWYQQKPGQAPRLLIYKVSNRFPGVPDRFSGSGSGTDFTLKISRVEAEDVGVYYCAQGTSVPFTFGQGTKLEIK", "0 fold"),
]
